This section presents molecules with their documented growth values.
# Test system: COLO 205 colon
# method summary: NCI-60 one-dose screen, 48 h (100 = growth as untreated, 0 = no growth, -100 = all killed)
# measurement context: 10 µM
This is part of a sample that, as a whole, favours compounds with a hit. Of some 83,000 tested, about 20% had one in any assay.
measured parameter: growth (%)

molecule	measured parameter	quantitative result
Nc1ccccc1NC(=O)c1ccc(CCCC(=O)Nc2ccc(C3CC3N)cc2)cc1 (centres undefined)	growth	-5.7
Clc1ccc(/C=C2\CCCC3C2=Nc2ccccc2NC3c2ccc(Cl)cc2)cc1 (centres undefined)	growth	68.2
O=C1CSC(=S)N1/N=C/c1ccc(Cl)s1	growth	107
Nc1ncnc2c1ncn2C1(CO)OCC(O)C(O)C1O (centres undefined)	growth	113

====

# Tested on: HCT-15 colon
# method summary: NCI-60 one-dose screen, 48 h
# measurement context: 10 µM
The panel holds about 83,000 compounds, 20% with a hit somewhere; the sample as a whole holds those more often. Active and inactive are the calls of the source. Rule for the calls: active = growth percent below 10; inactive = the rest.
Labels: true (1) (active), false (0) (inactive)

molecule	label class
COc1ccc(C(=O)c2ccccc2CN2C(=O)c3ccccc3C2=O)cc1	false (0)
Clc1ccc(/C=C2\CCCC3C2=Nc2ccccc2NC3c2ccc(Cl)cc2)cc1 (stereo unspecified)	false (0)
O=C(Nc1cc(Cl)cc2c1-c1ccc(Cl)cc1C2O)C(Cl)Cl (stereo unspecified)	false (0)
Fc1ccc(C(c2ccc(F)cc2)C(Cl)Cl)cc1	false (0)
COc1cc(-c2nn(-c3cccc(NC(=O)CCN4CCN(Cc5ccccc5)CC4)c3)cc2-c2ccncc2)ccc1Cl	false (0)
CS(=O)(=O)c1nccc(-c2c(-c3cccc(OCc4ccc(F)cc4)c3)nc3sccn23)n1	false (0)
Cc1nc2n(c(=O)c1CCN1CCC(c3noc4cc(F)ccc34)CC1)CCC[C@@H]2O	false (0)
COCCn1cc(-c2nc(-c3cccnc3)cs2)c2cc(F)ccc21	false (0)
Oc1cccc(-c2nc3sccn3c2-c2ccncn2)c1	false (0)
COc1cc(-c2ccc[nH]2)[nH]c1/C=C1\N=C(C)C(C(=O)NC(C)C)=C1C	true (1)
CCOS(=O)(=O)c1c(C(C)C)cc(C(C)C)cc1C(C)C	false (0)
CCOC(=O)c1cc(C(=O)c2ccc(F)cc2F)n2ccccc12	false (0)
COc1ccc(-c2cc(-c3ccccc3)nc(SCCCC(=O)NO)n2)cc1	false (0)
C[N+]1(CCCCC[N+]2(C)CCCC2)CCCC1	false (0)
C=C/C(C)=C/C[C@]1(C)[C@H](C)[C@@H](OC(=O)CCC)[C@H](O)[C@@]23C(=C[C@H](OC)C[C@@H]12)[C@@H](OC(=O)CCC)O[C@H]3OC(C)=O	true (1)
CCC(=O)OC1CCC2C3CCC(=O)OC3C(C)(CCC(=O)O)CC12C (stereo unspecified)	false (0)
CC(=O)Nc1ccc2c(c1)C(=O)c1cccc(C(=O)O)c1-2	false (0)
NC(N)=N/N=C(\N=Nc1ccccc1)c1ccc(Cl)cc1	false (0)
COc1ccc(-c2nc(-c3nc4ccc(C)cc4[nH]3)cc3c2[nH]c2ccccc23)cc1	false (0)
C=C(NC(=O)C(=C)NC(=O)c1csc(C2=NC3c4csc(n4)C4NC(=O)c5csc(n5)C(C(C)(O)C(C)O)NC(=O)C5CSC(=N5)C(=CC)NC(=O)C(C(C)O)NC(=O)c5csc(n5)C3(CC2)NC(=O)C(C)NC(=O)C(=C)NC(=O)C(C)NC(=O)C(C(C)CC)NC2C=Cc3c(C(C)O)cc(nc3C2O)C(=O)OC4C)n1)C(N)=O (stereo unspecified)	false (0)
Cc1cc(Cl)ccc1Nc1nc(C(F)(F)F)ccc1C(=O)N/N=C/c1c(Cl)cccc1Cl	true (1)
